We begin with a simple list: items and their reported pKd.
- tested_target: DLG4_1, P78352
- Sequence (P78352 62-152): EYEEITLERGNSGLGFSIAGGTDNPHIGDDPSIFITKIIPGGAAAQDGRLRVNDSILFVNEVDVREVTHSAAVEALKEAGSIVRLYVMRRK
- assay_notes: holdup assay
- Set-up: key: below the threshold = too weak to quantify, mostly under pKd 3.1 to 4
- test_context: plain residues with an end cap or a label only (N-terminal biotin on a linker: ttds)
Enter a number only.

The examples below pair each entry with its known result.
SRPQRTQTQV [HPV67-E6, A4U7F2] : 4.58
SSRTRRETQL [HPV16-E6, P03126] : 4.73
VLRLQSETSV [VANGL1, Q8TAA9] : 4.4
TVASEKESVM [SLC1A5, Q15758] : 3.56

For the binder shown here, STLTIFETAL [ABCC4, O15439] , give the reported pKd.
4.23

For the binder shown here, ERKLSSESQV [LRP4, O75096] , give the reported pKd.
4.17

For the binder shown here, RSLEEEESQL [GRASP, Q7Z6J2] , give the reported pKd.
3.63

Values compiled from paper PMC9482650.
